Test: Area under curve obtained at a dose of 10 mg/kg when administered orally to rhesus monkey
Type: ADME, organism-based, Macaca mulatta
Set-up: dose 10 mg/kg, route oral
Conditions: in vivo, po
Parameter AUC: see the listing below.

>  <compound>
C[C@@H]1O[C@](C#CC2CC2)(C(F)(F)F)c2cc(Cl)ccc2NC1=O (relative stereo)

>  <AUC>
30 µM·h

$$$$
>  <compound>
CC1OC(/C=C/C2CC2)(C(F)(F)F)c2cc(Cl)ccc2NC1=O (configuration not stated)

>  <AUC>
50.8 µM·h

$$$$
